- Tested on: OCI-LY18
- measurement notes: Cell viability assay (XTT)
- Format: cell-based
- test parameters: Homo sapiens, up to 72 hr
- Experimental: A panel of BET-sensitive and insensitive cell lines were profiled for effect on cell viability using compound 3. Cells were cultured in the presence of inhibitors at various concentrations for up to 72 hr. […]
parameter: IC50 (nM)

- C=CS(=O)(=O)Nc1ccc(Oc2ccc(F)cc2F)c(-c2cc(NC)c(=O)n(C)c2)c1 [Compound 3]: 420

----------
Catalogue of log10(IC50) values
- target under test: BRD4-2 (Homo sapiens (Human), UniProt O60885)
- measurement notes: Bromodomain and Extraterminal Domain (BET) Binding Assay
- test parameters: Table 3; read-out: BRD4-2 IC50
parameter: log10(IC50) (log10 of the value in nM)

- C=CC(=O)Nc1ccc(Nc2ccc(F)cc2F)c(-c2cn(C)c(=O)c3ccccc23)c1: 3.34
- C=CC(=O)Nc1ccc(Oc2ccc(F)cc2)c(-c2cc(NC)c(=O)n(C)c2)c1: 1.76
- C=CC(=O)Nc1ccc(Oc2ccc(OC)cc2)c(-c2cc(NC)c(=O)n(C)c2)c1: 2.15
- C=CC(=O)Nc1ccc(Nc2ccc(F)cc2F)c(-c2cc(NC)c(=O)n(C)c2)c1: 2.95
- C=CC(=O)Nc1ccc(Oc2c(C)cccc2C)c(-c2cc(NC)c(=O)n(C)c2)c1: 1.00
- C=CC(=O)Nc1ccc(Oc2c(C)cccc2C)c(-c2cn(C)c(=O)cc2OC)c1: 0.00
- C=CC(=O)N(C)c1ccc(Oc2ccc(F)cc2F)c(-c2cc(NC)c(=O)n(C)c2)c1: 2.13
- C=CS(=O)(=O)Nc1ccc(Oc2ccc(F)cc2F)c(-c2cn(C)c(=O)c3ccccc23)c1: 1.75
- C=CC(=O)Nc1ccc(Oc2ccc(F)cc2F)c(-c2nn(C)c(=O)cc2OC)c1: 2.31
- C/C=C/S(=O)(=O)Nc1ccc(Oc2ccc(F)cc2F)c(-c2cn(C)c(=O)c3ccccc23)c1: 1.90
- C=CS(=O)(=O)Nc1ccc(Oc2ccc(F)cc2F)c(-c2cc(NC)c(=O)n(C)c2)c1: 1.32
- C=CC(=O)Nc1ccc(Oc2ccc(F)cc2F)c(-c2cn(C)c(=O)c3c2OCC(=O)N3)c1: 3.26
- CCS(=O)(=O)Nc1ccc(Oc2ccc(F)cc2F)c(-n2cc(Cl)c(=O)c3ccccc32)c1: 0.70
- C=CS(=O)(=O)Nc1ccc(Oc2ccc(C)cc2)c(-c2cn(C)c(=O)c3ccccc23)c1: 1.38
- CCS(=O)(=O)Nc1ccc(Oc2ccc(F)cc2F)c(-n2cc(C)c(=O)c3ccccc32)c1: 0.60
- C=CC(=O)Nc1ccc(Nc2c(C)cccc2C)c(-c2cn(C)c(=O)c3ccccc23)c1: 2.95
- C=CS(=O)(=O)Nc1ccc(Oc2ccc(F)cc2F)c(-c2cc(N)c(=O)n(C)c2)c1: 2.08
- C=CC(=O)Nc1ccc(Oc2ccc(OC)cc2)c(-c2cn(C)c(=O)c3ccccc23)c1: 1.88
- C=CS(=O)(=O)N(C)c1ccc(Oc2ccc(F)cc2F)c(-c2cc(NC)c(=O)n(C)c2)c1: 1.53
- C=CS(=O)(=O)Nc1ccc(Oc2ccc(OC)cc2)c(-c2cn(C)c(=O)c3ccccc23)c1: 1.57
- C=CS(=O)(=O)Nc1ccc(Nc2ccc(F)cc2F)c(-c2cc(NC)c(=O)n(C)c2)c1: 1.04
- C=CC(=O)Nc1ccc(Oc2c(C)cc(F)cc2C)c(-c2cc(NC)c(=O)n(C)c2)c1: 1.23
- C=CC(=O)Nc1ccc(Oc2c(C)cccc2C)c(-c2cn(C)c(=O)c3ccccc23)c1: 2.74
- C=CC(=O)Nc1ccc(Oc2ccc(F)cc2F)c(-c2cn(C)c(=O)c3ccccc23)c1: 2.50
- C=CC(=O)Nc1ccc(OC(F)(F)F)c(-c2cn(C)c(=O)c3ccccc23)c1: 3.51
- C=CC(=O)N(C)c1ccc(Oc2ccc(F)cc2F)c(-c2cn(C)c(=O)c3ccccc23)c1: 2.47
- C=CC(=O)Nc1ccc(Oc2ccc(F)cc2)c(-c2cn(C(C)C)c(=O)c3ccccc23)c1: 4.25
- Cc1cccc(C)c1Oc1ccc(NC(=O)/C=C/CN(C)C)cc1-c1cn(C)c(=O)c2ccccc12: 2.88
- C=CC(=O)Nc1ccc(Oc2c(C)cc(F)cc2C)c(-c2cn(C)c(=O)c3cc(C(=O)NCC)sc23)c1: 0.78
- C=CC(=O)Nc1ccc(Oc2c(C)cc(F)cc2C)c(-c2cn(C)c(=O)c3ccccc23)c1: 2.64
- CCS(=O)(=O)Nc1ccc(Oc2ccc(F)cc2F)c(-n2ccc(=O)c3ccccc32)c1: 1.97
